Listing: residual activity of selected compounds
Target: FLT3 (human) (UniProt P36888)
Sequence (P36888 whole entry, looked up): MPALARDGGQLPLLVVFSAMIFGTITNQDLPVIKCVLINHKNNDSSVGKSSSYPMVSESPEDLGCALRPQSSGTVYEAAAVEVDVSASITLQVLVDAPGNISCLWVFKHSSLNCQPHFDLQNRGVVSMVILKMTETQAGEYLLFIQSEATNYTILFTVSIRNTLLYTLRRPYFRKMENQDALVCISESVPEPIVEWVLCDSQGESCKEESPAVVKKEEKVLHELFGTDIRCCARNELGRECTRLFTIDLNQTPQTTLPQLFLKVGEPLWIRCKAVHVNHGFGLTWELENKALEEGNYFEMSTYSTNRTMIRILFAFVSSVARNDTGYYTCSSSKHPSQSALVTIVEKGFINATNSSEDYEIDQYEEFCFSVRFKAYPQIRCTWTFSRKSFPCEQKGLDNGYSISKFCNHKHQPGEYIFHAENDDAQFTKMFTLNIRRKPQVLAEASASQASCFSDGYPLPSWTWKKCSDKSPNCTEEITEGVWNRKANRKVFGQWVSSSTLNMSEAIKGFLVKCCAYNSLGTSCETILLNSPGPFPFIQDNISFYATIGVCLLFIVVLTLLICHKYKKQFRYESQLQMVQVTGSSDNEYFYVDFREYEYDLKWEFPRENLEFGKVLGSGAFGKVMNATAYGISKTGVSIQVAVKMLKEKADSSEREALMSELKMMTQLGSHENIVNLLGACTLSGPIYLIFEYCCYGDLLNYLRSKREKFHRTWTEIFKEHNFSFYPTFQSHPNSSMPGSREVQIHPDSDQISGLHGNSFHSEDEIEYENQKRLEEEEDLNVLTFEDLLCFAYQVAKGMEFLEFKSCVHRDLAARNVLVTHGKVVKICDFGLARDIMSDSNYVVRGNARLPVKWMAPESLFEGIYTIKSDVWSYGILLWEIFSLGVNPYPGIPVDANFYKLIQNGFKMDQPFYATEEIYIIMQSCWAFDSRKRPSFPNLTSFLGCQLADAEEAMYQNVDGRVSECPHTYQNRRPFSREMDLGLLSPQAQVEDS
Experiment: radiometric filter-binding kinase assay, Kinase HotSpot
Details: compound 0.5 µM; ATP 10 µM

- smilesText: "Cc1cccc(-c2nc(C(C)(C)C)[nH]c2-c2ccc3c(c2)OCO3)n1"
  residual activity [%]: 96.2
- smilesText: "C[C@@H]1CCN(C(=O)CC#N)C[C@@H]1N(C)c1ncnc2[nH]ccc12"
  residual activity [%]: 77.9
- smilesText: "O=C1c2ccccc2-c2nc3nnnn3nc21"
  residual activity [%]: 100
- smilesText: "CS(=O)(=O)CCNCc1ccc(-c2ccc3ncnc(Nc4ccc(OCc5cccc(F)c5)c(Cl)c4)c3c2)o1"
  residual activity [%]: 92.6
- smilesText: "CC(C)(C)c1cc(C=C(C#N)C#N)cc(Br)c1O"
  residual activity [%]: 102
- smilesText: "CN(C)CCCn1cc(C2=C(c3c[nH]c4ccccc34)C(=O)NC2=O)c2ccccc21"
  residual activity [%]: 5.6
- smilesText: "Cc1cncc2cccc(S(=O)(=O)N3CCCN(C(=O)CN)C[C@H]3C)c12"
  residual activity [%]: 90.1
- smilesText: "Cc1nc(-c2ccccc2)c(-c2ccncc2)o1"
  residual activity [%]: 95.2
- smilesText: "COc1cc(Nc2c(C#N)cnc3cc(OCCCN4CCN(C)CC4)c(OC)cc23)c(Cl)cc1Cl"
  residual activity [%]: 30.3
- smilesText: "COc1ccc(S(=O)(=O)N(CCO)c2ccccc2CN(C)C/C=C/c2ccc(Cl)cc2)cc1"
  residual activity [%]: 98.4
